Molecular target: EGFR L858R/C797S (Homo sapiens, UniProt P00533, C797S/L858R)
Sequence (P00533 25-1210 C797S/L858R): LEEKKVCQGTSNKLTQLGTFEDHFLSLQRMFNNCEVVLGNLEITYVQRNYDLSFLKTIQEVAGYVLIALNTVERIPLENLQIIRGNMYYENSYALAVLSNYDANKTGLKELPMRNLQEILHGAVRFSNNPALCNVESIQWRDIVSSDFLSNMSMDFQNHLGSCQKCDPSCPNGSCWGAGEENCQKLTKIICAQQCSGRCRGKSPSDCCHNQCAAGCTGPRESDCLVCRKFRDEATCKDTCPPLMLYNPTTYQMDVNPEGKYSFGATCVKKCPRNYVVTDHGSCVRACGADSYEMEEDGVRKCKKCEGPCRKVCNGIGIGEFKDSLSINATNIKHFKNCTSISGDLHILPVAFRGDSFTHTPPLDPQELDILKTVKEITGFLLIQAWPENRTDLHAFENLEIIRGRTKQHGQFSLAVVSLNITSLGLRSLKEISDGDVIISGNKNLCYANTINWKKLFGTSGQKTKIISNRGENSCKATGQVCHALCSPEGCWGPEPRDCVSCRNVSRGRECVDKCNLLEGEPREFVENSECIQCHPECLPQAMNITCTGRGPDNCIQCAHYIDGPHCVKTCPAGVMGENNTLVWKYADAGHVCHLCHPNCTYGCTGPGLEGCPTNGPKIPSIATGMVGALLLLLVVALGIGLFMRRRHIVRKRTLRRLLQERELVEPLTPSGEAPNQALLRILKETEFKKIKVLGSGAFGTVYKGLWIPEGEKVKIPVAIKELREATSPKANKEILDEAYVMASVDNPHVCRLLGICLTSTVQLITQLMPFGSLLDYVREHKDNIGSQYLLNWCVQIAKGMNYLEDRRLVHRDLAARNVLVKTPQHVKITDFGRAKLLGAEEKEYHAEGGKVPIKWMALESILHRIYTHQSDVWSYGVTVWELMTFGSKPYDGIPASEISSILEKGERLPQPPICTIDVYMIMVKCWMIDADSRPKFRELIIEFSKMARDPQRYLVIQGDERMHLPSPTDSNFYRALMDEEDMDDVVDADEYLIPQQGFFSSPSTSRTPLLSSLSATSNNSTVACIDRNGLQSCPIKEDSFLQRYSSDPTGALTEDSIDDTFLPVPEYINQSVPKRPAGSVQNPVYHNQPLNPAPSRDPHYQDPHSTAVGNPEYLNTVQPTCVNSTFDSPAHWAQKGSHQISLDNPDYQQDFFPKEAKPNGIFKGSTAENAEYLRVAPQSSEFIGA
Test: Biochemical EGFR kinase assay (Lance Ultra TR-FRET), double mutant L858R/C797S
Conditions: Km ATP; read-out: IC50 L858R/C797S, Km ATP
pIC50: −log10 of the molar value.
measuredParameter: pIC50

- smilesData: "C[C@]1(O)CC[C@@H](Nc2cc(Nc3ccnc(-c4cnn(S(=O)(=O)C5CC5)c4)n3)nnc2-c2ccn(CC(F)(F)F)n2)CC1"
  measuredParameter: "pIC50"
  resultNumber: 7.59
- smilesData: "C[C@]1(O)CC[C@@H](Nc2nc(Nc3ccnc(-c4cnn(CC(F)F)c4)c3)ncc2-c2ccn(C(F)F)n2)CC1"
  measuredParameter: "pIC50"
  resultNumber: 8.30
- smilesData: "C[C@]1(O)CC[C@@H](Nc2nc(Nc3ccnc(-c4cnn(S(=O)(=O)C5CC5)c4)c3)ncc2-c2ccn(C(F)F)n2)CC1"
  measuredParameter: "pIC50"
  resultNumber: 7.88

* * *

Biological target: EGFR wildtype (WT) (Homo sapiens, UniProt P00533)
Sequence (P00533 25-1210): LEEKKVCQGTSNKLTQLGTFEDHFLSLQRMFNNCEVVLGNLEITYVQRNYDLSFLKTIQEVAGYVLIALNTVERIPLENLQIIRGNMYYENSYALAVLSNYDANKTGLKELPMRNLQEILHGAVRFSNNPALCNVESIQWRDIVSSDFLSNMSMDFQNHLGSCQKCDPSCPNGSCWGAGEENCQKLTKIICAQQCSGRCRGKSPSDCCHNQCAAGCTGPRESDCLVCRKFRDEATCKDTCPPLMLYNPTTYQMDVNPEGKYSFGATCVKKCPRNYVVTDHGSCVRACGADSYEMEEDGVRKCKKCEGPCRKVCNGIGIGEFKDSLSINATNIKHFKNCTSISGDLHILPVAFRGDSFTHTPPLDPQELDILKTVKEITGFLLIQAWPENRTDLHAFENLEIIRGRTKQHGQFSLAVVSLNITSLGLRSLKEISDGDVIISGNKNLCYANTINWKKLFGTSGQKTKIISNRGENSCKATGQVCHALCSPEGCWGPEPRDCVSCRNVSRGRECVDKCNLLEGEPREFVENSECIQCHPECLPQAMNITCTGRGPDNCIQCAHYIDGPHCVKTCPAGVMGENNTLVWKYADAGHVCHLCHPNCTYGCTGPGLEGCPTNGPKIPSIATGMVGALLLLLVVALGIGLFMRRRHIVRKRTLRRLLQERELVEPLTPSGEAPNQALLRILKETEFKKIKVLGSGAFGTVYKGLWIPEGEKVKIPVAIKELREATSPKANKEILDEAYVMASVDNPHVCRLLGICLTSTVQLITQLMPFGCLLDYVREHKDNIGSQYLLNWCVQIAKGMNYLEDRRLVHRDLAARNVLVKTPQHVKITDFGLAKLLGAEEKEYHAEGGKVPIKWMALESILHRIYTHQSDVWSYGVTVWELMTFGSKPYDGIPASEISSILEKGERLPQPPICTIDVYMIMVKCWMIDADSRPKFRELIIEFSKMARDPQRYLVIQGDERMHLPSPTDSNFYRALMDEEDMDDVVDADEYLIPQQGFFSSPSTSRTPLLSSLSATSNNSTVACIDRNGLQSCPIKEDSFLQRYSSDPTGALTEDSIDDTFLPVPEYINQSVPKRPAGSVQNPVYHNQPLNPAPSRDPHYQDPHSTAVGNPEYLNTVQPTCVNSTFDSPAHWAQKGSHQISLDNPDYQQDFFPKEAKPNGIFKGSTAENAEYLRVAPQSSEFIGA
Experiment: Biochemical EGFR kinase assay (Lance Ultra TR-FRET), wildtype
Conditions: read-out: IC50 WT (nM) 100 μM ATP; 100 μM ATP
Quick list: IC50 per entry.

- compound: "O=S(=O)(C1CC1)n1cc(-c2nccc(Nc3cc(N[C@H]4CC[C@@H](NCCF)CC4)c(-c4csc(C(F)(F)F)n4)cn3)n2)cn1 [Example 50]"
  targetOrTestSystem: "EGFR wildtype (WT) (Homo sapiens, UniProt P00533)"
  IC50: "> 10000 nM"
- compound: "CN[C@H]1CC[C@@H](Nc2cc(Nc3ccnc(-c4cnn(S(=O)(=O)C5CC5)c4)n3)ncc2-c2ccn(C(C)C)n2)CC1 [Example 86]"
  targetOrTestSystem: "EGFR wildtype (WT) (Homo sapiens, UniProt P00533)"
  IC50: "8510 nM"
- compound: "O=S(=O)(C1CC1)n1cc(-c2nccc(Nc3cc(N[C@H]4CC[C@](O)(C(F)(F)F)CC4)c(-c4ccn(C(F)F)n4)cn3)n2)cn1 [Example 11]"
  targetOrTestSystem: "EGFR wildtype (WT) (Homo sapiens, UniProt P00533)"
  IC50: "> 10000 nM"

* * *

Below, each of the compounds is paired with its reported IC50 value.
Biological target: EGFR wildtype (WT) (Homo sapiens, UniProt P00533)
Assay: Biochemical EGFR kinase assay (Lance Ultra TR-FRET), wildtype
Conditions: IC50 WT (nM) 100 μM ATP, 100 μM ATP
measuredParameter: IC50 (nM)

- compound: "C[C@]1(O)CC[C@@H](Nc2cc(Nc3ccnc(-c4cnn(S(=O)(=O)C5CC5)c4)n3)ncc2-c2csc(N3CCOCC3)n2)CC1"
  unitTag: "nM"
  comparativeSign: ">"
  resultNumber: 10000
- compound: "O=S(=O)(C1CC1)n1cc(-c2nccc(Nc3cc(N[C@H]4CC[C@@H](NCCF)CC4)c(-c4csc(N5CCOCC5)n4)cn3)n2)cn1"
  unitTag: "nM"
  comparativeSign: ">"
  resultNumber: 10000
- compound: "Cn1nc(-c2cnc(Nc3ccnc(-c4cnn(S(=O)(=O)C5CC5)c4)n3)cc2N[C@H]2CC[C@@H](CN3CCC3)CC2)cc1C(F)(F)F"
  unitTag: "nM"
  comparativeSign: "="
  resultNumber: 244
- compound: "O=S(=O)(C1CC1)n1cc(-c2nccc(Nc3cc(N[C@H]4CC[C@@H](NCCF)CC4)c(-c4ccn(CC(F)F)n4)cn3)n2)cn1"
  unitTag: "nM"
  comparativeSign: "="
  resultNumber: 6320
- compound: "Cc1cc(-c2cnc(Nc3ccnc(-c4cnn(S(=O)(=O)C5CC5)c4)n3)cc2N[C@H]2CC[C@@H](C(C)(C)O)CC2)nn1C"
  unitTag: "nM"
  comparativeSign: "="
  resultNumber: 806
- compound: "Cn1nc(-c2cnc(Nc3ccnc(-c4cnn(S(=O)(=O)C5CC5)c4)n3)cc2N[C@H]2CCC[C@H](CO)C2)cc1C(F)(F)F"
  unitTag: "nM"
  comparativeSign: "="
  resultNumber: 5230
- compound: "O=S(=O)(C1CC1)n1cc(-c2nccc(Nc3cc(NC[C@H]4CC[C@@H](O)C4)c(-c4ccn(CC(F)(F)F)n4)cn3)n2)cn1"
  unitTag: "nM"
  comparativeSign: ">"
  resultNumber: 10000
- compound: "CC1CC(Nc2cc(Nc3ccnc(-c4cnn(S(=O)(=O)C5CC5)c4)n3)ncc2-c2ccn(C(F)F)n2)CCC1O (centres unmarked)"
  unitTag: "nM"
  comparativeSign: ">"
  resultNumber: 10000
- compound: "O=S(=O)(C1CC1)n1cc(-c2nccc(Nc3cc(OC4CCC(O)C4)c(-c4ccn(C(F)F)n4)cn3)n2)cn1 (centres unmarked)"
  unitTag: "nM"
  comparativeSign: ">"
  resultNumber: 10000
- compound: "O=S(=O)(C1CC1)n1cc(-c2nccc(Nc3cc(N[C@H]4CC[C@@H](O)CC4)c(-c4csc(C(F)(F)F)n4)cn3)n2)cn1"
  unitTag: "nM"
  comparativeSign: "="
  resultNumber: 1240
- compound: "CC(C)c1cc(-c2cnc(Nc3ccnc(-c4cnn(S(=O)(=O)C5CC5)c4)n3)cc2N[C@H]2CC[C@@](C)(O)CC2)on1"
  unitTag: "nM"
  comparativeSign: ">"
  resultNumber: 10000

* * *

Here, each record is paired with measured log10 of IC50 data.
Molecular target: UniProt P00533
Assay: Biochemical EGFR kinase assay (Lance Ultra TR-FRET), wildtype
Conditions: Km ATP; read-out: IC50 WT, Km ATP
measuredParameter: log10 of IC50 (log10 of the value in nM)

- compound: "C[C@]1(O)CC[C@@H](Nc2cc(Nc3ccnc(-c4cnn(S(=O)(=O)C5CC5)c4)n3)ncc2-n2cccn2)CC1"
  targetOrTestSystem: "UniProt P00533"
  resultNumber: 2.16
- compound: "CC1(O)CCC(Nc2cc(Nc3ccnc(N4CCC(F)(F)C(O)C4)n3)ncc2-c2ccn(C(F)F)n2)CC1 (stereo not shown)"
  targetOrTestSystem: "UniProt P00533"
  resultNumber: 2.42
- compound: "O=S(=O)(C1CC1)n1cc(-c2nccc(Nc3cc(N[C@H]4C[C@@H](CO)C4)c(-c4ccn(C(F)F)n4)cn3)n2)cn1"
  targetOrTestSystem: "UniProt P00533"
  resultNumber: 1.99
- compound: "CC1(O)CCC(Nc2cc(Nc3ccnc(N4CCC(O)C(F)(F)C4)n3)ncc2-c2ccn(C(F)F)n2)CC1 (stereo not shown)"
  targetOrTestSystem: "UniProt P00533"
  resultNumber: 2.16
- compound: "CC1(O)CCC(Nc2cc(Nc3ccnc(N4CC(CO)C(C)(C)C4)n3)ncc2-c2ccn(C(F)F)n2)CC1 (stereo not shown)"
  targetOrTestSystem: "UniProt P00533"
  resultNumber: 2.60
- compound: "O=S(=O)(C1CC1)n1cc(-c2ncc(F)c(Nc3cc(N[C@H]4CC[C@@H](CCO)CC4)c(-c4ccn(CC(F)F)n4)cn3)n2)cn1"
  targetOrTestSystem: "UniProt P00533"
  resultNumber: 3.41
- compound: "Cn1nc(-c2cnc(Nc3ccnc(-c4cnn(S(=O)(=O)C5CC5)c4)c3)nc2N[C@H]2CC[C@@](C)(O)CC2)cc1C(F)(F)F"
  targetOrTestSystem: "UniProt P00533"
  resultNumber: 1.98

* * *

Target: EGFR del19/T790M/C797S (Homo sapiens, UniProt P00533, C797S/DEL746-750/T790M)
Sequence (P00533 with tags, fused parts or gaps DEL746-750/T790M/C797S): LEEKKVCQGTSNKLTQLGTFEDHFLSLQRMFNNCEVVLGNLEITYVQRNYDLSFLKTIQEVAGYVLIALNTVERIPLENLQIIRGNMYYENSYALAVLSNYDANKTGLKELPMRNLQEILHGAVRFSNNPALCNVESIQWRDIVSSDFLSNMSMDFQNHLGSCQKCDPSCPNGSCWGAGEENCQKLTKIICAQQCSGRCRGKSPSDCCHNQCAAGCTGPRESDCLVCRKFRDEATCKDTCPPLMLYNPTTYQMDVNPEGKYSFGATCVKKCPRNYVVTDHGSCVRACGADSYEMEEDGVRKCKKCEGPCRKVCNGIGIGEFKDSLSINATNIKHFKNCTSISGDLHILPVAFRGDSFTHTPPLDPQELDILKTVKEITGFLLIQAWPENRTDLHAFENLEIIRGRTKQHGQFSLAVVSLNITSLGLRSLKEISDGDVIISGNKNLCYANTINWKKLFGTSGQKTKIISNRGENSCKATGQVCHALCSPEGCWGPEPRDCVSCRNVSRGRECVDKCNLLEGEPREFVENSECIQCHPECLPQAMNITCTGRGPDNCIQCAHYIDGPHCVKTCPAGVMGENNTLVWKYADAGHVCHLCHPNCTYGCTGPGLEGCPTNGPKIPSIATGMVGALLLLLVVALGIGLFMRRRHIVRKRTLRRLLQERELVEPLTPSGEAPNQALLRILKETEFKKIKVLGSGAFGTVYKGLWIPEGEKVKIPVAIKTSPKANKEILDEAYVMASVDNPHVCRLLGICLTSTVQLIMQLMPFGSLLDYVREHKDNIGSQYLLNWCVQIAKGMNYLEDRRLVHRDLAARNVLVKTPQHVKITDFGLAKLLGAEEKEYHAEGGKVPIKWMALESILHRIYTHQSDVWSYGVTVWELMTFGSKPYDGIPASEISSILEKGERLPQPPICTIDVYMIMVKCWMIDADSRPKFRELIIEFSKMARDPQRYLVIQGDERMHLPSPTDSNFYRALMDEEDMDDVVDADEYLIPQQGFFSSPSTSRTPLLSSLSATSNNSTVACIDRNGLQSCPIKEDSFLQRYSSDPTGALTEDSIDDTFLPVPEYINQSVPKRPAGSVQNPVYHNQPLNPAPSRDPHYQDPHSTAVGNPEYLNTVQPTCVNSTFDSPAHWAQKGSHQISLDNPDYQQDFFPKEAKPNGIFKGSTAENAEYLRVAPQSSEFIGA
Assay: Biochemical EGFR kinase assay (Lance Ultra TR-FRET), triple mutant del19/T790M/C797S
Conditions: IC50 del19/T790M/C797S (nM) 100 μM ATP, 100 μM ATP
Listed next: entries and their corresponding IC50.

- molecule: "Cn1ccc(-c2cnc(Nc3ccnc(-c4cnn(S(=O)(=O)C5CC5)c4)n3)cc2NCC2CCC(NCCF)CC2)n1 (stereo not drawn)"
  IC50: "0.3 nM"
- molecule: "Cn1nc(-c2cnc(Nc3ccnc(-c4cnn(S(=O)(=O)C5CC5)c4)n3)cc2N[C@H]2CC[C@@H](CCO)CC2)cc1C(F)(F)F"
  IC50: "6.6 nM"
- molecule: "O=S(=O)(C1CC1)n1cc(-c2nccc(Nc3cc(NC4CC5CC(O)C4C5)c(-c4ccn(C(F)F)n4)cn3)n2)cn1 (stereo not drawn)"
  IC50: "3.6 nM"
- molecule: "C[C@]1(O)CC[C@H](CNc2cc(Nc3ccnc(-c4cnn(S(=O)(=O)C5CC5)c4)n3)ncc2-c2ccn(C(F)F)n2)CC1"
  IC50: "1 nM"
- molecule: "O=S(=O)(C1CC1)n1cc(-c2nccc(Nc3cc(OC4CCC(O)CC4)c(-c4ccn(C(F)F)n4)cn3)n2)cn1 (stereo not drawn)"
  IC50: "0.4 nM"
- molecule: "CN(C)C(=O)[C@H]1CC[C@@H](Nc2cc(Nc3ccnc(-c4cnn(S(=O)(=O)C5CC5)c4)n3)ncc2-c2cc(C(F)(F)F)n(C)n2)CC1"
  IC50: "3.7 nM"
